System: HCT-116 MTAP wild-type cells
TEST PROTOCOL: Inhibition of proliferation of HCT-116 MTAP wild-type cells (Cell-Titer Glo)
Format: cell-based
SETTINGS: Homo sapiens, HCT-116, 192 h, 8 days
Method: Test 2: Compound's inhibitory activity on proliferation of HCT-116 MTAP wild-type cells. […] Cell Proliferation Inhibition Assay: The compound's inhibitory activity on HCT-116 MTAP wild-type cells was assessed using the Cell-Titer Glo assay kit. […]
MEASURED METRIC: IC50

Requested read-out: IC50. Entry: CN(C(=O)c1cc2c(cn1)nc(N)c1cncn12)C1CCc2ccccc21 (centres unmarked) > 10000 nM

Any idea what IC50 was measured for CN(C(=O)c1ccc2nc(N)c3cncn3c2c1)[C@H]1CSc2cc(C(F)(F)F)ccc21 (single isomer, unassigned) ? > 10000 nM

Please give the measured IC50 for this compound: CN(C(=O)c1ccc2nc(N)c3cncn3c2c1)[C@@H]1COc2cc(NS(=O)(=O)C(F)(F)F)ccc21 > 10000 nM

Given the entry CN(C(=O)c1ccc2nc(N)n3cncc3c2c1)[C@@H]1COc2cc(C(F)(F)F)ccc21 , report its measured IC50. > 10000 nM

Item CN(C(=O)c1ccc2nc(N)c3cncn3c2c1)[C@@H]1COc2ccc(F)cc21 has what recorded IC50? > 20000 nM

Quick one: IC50 of CN(C(=O)c1ccc2nc(N)c3c(C#N)ncn3c2c1)[C@@H]1COc2cc(C(F)(F)F)ccc21 ? > 10000 nM

Which IC50 value is on record for Cc1ncn2c1c(N)nc1ccc(C(=O)N(C)[C@@H]3COc4ccc(F)cc43)cc12 ? > 20000 nM

So what does the record say about IC50 for CC1OC[C@@H](N(C)C(=O)c2cc3c(cc2Cl)nc(N)c2cncn23)c2ccc(F)cc21 (some centres unmarked) ? 882 nM

Look up IC50: CN(C(=O)c1ccc2nc(N)c3cncn3c2c1)[C@H]1COCc2ccc(C(F)(F)F)cc21 (single isomer, unassigned) > 10000 nM

What value of measured IC50 is listed for Cc1ncc(-c2ccc3c(c2)OCC3N(C(=O)c2ccc3nc(N)c4cncn4c3c2)C2CC2)cn1 (centres unmarked) ? > 20000 nM

Need IC50 of CCOC(=O)c1ncn2c1c(N)nc1ccc(C(=O)N(C)C3COc4cc(C(F)(F)F)ccc43)cc12 (centres unmarked) , thanks. 9090 nM

Field request: IC50 | item: [2H]C([2H])([2H])N(C(=O)c1cc2c(cn1)nc(N)c1cncn12)[C@@H]1COc2cc(C(F)(F)F)ccc21 1170 nM

What does the record list as IC50 for Nc1nc2cc(F)c(C(=O)N(C3CC3)C3COc4cc(N5CCOCC5)ccc43)cc2n2cncc12 (centres unmarked) ? > 10000 nM

Returns the measured IC50 for the input compound. Input: CN(C(=O)c1ccc2nc(N)c3cncn3c2c1)[C@@H]1CCc2cc(C(F)(F)F)ncc21 > 10000 nM
